Values compiled from patent US9029337B2.

- Test system: human Factor 7 mRNA
- protocol_notes: Dose-dependent antisense inhibition of human Factor 7 in HepB3 cells, lipofectin
- Assay type: cell-based
- cond: HepB3 cells, approx. 16 hours (Table 14)
- Description: Cells were plated at a density of 4,000 cells per well and treated with lipofectin reagent with 3.125 nM, 6.25 nM, 12.5 nM, 25 nM, 50 nM, and 100 nM concentrations of antisense oligonucleotide, as indicated in Table 3. After a treatment period of approximately 16 hours, RNA was isolated from the cells and Factor 7 mRNA levels were measured by real-time RT-PCR, as described herein. […] Factor 7 mRNA levels were adjusted according to total RNA content as measured by RIBOGREEN®. […]
Strand notation (5' to 3'): a small letter for the sugar, then the base; units joined by * are phosphorothioate-linked, units joined directly phosphodiester-linked; [ ] holds rarer units or linkages, { } end groups; capitals alone tell only the bases. e = 2'-O-(2-methoxyethyl) (MOE); [5mC] = 5-methylcytosine; d = 2'-deoxy (DNA)
The following substances are shown together with reported percent inhibition of Factor 7 mRNA, relative to untreated control cells values.
quantity_name: percent inhibition of Factor 7 mRNA, relative to untreated control cells (%)

substance	units_label	test_result
422086 (antisense eT*eG*e[5mC]*eA*eT*dG*dG*dT*dG*dA*dT*dG*d[5mC]*dT*dT*e[5mC]*eT*eG*eA*eA) [compound 422086]	%	26
422130 (antisense eG*e[5mC]*e[5mC]*eT*eG*dA*dG*dG*d[5mC]*d[5mC]*dA*dG*d[5mC]*dA*dG*eA*eT*e[5mC]*eA*e[5mC]) [compound 422130]	%	15
422096 (antisense eA*eG*eA*e[5mC]*eA*dA*dT*dG*dG*dT*d[5mC]*dA*dG*dG*dG*e[5mC]*eT*eG*eG*eT) [compound 422096]	%	23
422296 (antisense e[5mC]*e[5mC]*dG*dA*dG*dT*dT*d[5mC]*dT*dG*d[5mC]*dA*dG*dG*dA*eG*e[5mC]*eG*eG*e[5mC]) [compound 422296]	%	27
407935 (antisense eA*eT*eG*e[5mC]*eA*dT*dG*dG*dT*dG*dA*dT*dG*d[5mC]*dT*eT*e[5mC]*eT*eG*eA) [compound 407935]	%	39
422140 (antisense eG*eT*eT*e[5mC]*eT*dG*d[5mC]*dA*dG*dG*dA*dG*d[5mC]*dG*dG*e[5mC]*e[5mC]*eT*eA*eA) [compound 422140]	%	35
